- Tested Target: CSK (human) (UniProt P41240)
- Sequence (P41240 whole entry, looked up): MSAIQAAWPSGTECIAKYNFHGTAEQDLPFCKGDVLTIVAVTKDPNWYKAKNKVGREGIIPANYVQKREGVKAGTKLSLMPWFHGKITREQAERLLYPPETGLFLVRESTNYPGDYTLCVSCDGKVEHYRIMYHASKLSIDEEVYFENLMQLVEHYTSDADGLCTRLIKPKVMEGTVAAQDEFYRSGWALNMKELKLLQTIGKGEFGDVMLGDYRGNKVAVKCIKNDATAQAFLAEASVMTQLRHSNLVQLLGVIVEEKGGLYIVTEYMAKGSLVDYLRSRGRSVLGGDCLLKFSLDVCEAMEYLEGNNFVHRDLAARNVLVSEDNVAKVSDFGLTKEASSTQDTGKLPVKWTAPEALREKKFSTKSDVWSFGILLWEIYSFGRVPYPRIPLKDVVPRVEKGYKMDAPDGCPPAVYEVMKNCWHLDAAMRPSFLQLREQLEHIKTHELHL
- Test Summary: radiometric filter-binding kinase assay
- Applied Conditions: compound 0.1 µM
# reported residual activity; entries follow
Write the answer as a number in %, unit excluded.

Here is how some compounds turned out for residual activity.
NC1(c2ccc(-c3nc4ccn5c(=O)[nH]nc5c4cc3-c3ccccc3)cc2)CCC1
92
CNC(=O)C1[C@H]2O[C@@](C)([C@@H]1N)n1c3ccccc3c3c4c(c5c6ccccc6n2c5c31)C(=O)NC4 (stereo partly drawn)
73

*Q* What measured residual activity goes with C/C(=C1/C(=O)Nc2ccc(NC(N)=O)cc21)c1ccc[nH]1 ?
*A* 102

* * *

- Tested Target: UniProt:Q15746
- Sequence (Q15746 whole entry, looked up): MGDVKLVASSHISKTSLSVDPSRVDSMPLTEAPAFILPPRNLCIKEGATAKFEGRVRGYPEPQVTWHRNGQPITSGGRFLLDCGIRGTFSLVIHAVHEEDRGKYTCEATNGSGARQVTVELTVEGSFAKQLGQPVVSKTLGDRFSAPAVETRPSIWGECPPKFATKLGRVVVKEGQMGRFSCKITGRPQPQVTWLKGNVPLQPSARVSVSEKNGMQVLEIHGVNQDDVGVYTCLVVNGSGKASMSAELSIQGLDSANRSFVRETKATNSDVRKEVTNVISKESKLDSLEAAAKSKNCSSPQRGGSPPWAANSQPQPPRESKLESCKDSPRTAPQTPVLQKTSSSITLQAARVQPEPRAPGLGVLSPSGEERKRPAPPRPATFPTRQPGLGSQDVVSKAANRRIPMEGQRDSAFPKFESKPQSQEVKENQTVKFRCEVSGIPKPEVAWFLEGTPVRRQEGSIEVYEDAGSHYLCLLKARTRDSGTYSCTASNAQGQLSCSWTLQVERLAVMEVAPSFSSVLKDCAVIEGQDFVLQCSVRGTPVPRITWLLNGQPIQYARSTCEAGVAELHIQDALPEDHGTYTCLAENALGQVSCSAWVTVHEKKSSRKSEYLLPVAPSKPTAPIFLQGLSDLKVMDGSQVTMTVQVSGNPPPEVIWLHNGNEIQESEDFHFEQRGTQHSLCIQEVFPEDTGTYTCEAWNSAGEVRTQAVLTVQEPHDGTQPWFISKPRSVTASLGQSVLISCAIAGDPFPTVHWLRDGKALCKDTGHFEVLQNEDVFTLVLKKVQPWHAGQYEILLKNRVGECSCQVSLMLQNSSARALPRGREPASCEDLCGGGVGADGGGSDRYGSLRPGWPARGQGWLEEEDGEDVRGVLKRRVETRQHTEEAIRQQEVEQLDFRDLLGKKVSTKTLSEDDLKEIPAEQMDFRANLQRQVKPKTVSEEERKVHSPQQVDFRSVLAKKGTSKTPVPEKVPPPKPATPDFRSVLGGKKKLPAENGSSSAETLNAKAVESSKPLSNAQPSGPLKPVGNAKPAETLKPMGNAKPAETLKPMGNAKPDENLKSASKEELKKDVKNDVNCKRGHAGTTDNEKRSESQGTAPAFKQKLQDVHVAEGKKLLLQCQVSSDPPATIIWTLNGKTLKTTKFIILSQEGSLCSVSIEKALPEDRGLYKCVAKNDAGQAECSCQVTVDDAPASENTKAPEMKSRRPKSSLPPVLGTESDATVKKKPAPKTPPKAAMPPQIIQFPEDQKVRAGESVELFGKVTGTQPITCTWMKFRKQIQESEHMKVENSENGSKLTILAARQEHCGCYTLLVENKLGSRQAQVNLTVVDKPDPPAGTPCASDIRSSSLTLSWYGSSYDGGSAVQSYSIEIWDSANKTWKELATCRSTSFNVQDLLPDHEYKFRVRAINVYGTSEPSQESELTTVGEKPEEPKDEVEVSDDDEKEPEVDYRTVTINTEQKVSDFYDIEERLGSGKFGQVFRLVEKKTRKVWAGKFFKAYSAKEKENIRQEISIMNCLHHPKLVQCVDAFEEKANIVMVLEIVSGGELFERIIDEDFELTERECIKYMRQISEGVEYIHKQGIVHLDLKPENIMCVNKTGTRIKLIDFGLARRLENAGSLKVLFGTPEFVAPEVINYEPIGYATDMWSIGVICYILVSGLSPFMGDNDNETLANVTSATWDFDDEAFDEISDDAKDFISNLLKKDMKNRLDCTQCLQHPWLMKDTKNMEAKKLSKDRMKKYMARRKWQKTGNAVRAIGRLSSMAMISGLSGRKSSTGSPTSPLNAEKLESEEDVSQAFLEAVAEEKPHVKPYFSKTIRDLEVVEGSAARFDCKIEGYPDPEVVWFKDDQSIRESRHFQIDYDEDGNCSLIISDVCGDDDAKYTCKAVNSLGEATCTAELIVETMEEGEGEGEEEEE
- Test Summary: radiometric filter-binding kinase assay
- Applied Conditions: compound 10.0 µM
Measurement Kind: residual activity (%)
Output spec: scalar in %, unitless text.

Example cases with answers are listed next.
Oc1ccc(/C=C/c2cc(O)cc(O)c2)cc1
63
C[C@H]1CCCC(=O)CCC/C=C/c2cc(O)cc(O)c2C(=O)O1
59
NC(=O)c1ccc(-c2ccc(Oc3cncc4sc(-c5nn[nH]n5)cc34)cc2)cc1
35

*Q* What does the record list as residual activity for CC(C)(C#N)c1ccc(N2C(=O)OCc3cnc4ccc(-c5cnc6ccccc6c5)cc4c32)cc1 ?
*A* 100

*Q* Look at this compound and give its reported residual activity. O=C1NC(=S)N[C@@H]1Cc1c[nH]c2ccccc12
*A* 94

*Q* Would you mind telling me what residual activity value was observed for Cc1ccc(-c2ccc3c(ccc4sc5c(c43)NC[C@@H](C)NC5=O)n2)cn1 ?
*A* 110

*Q* Report residual activity for CCc1cncnc1N1CCN(Cc2nc3cc(C(F)(F)F)ccc3[nH]2)CC1 please.
*A* 87

*Q* Item under review: CCNc1nc(Nc2cc(F)c(C(=O)N3CCOCC3)cc2OC)ncc1C(F)(F)F . Reported residual activity?
*A* 6

*Q* Param item = Cc1ccc(Sc2cnc(Nc3cccc(Br)n3)s2)cc1C(=O)N1CCN(C(=O)CN)CC1 ; retrieve measured residual activity.
*A* 5

*Q* Requested read-out: residual activity. Entry: NC(=O)c1c(NC(=O)C2CC2)sc2c1CCCC2
*A* 49

*Q* Can you share its residual activity? I mean this compound: O=C(NOCC(O)CO)c1ccc(F)c(F)c1Nc1ccc(I)cc1Cl (configuration not stated)
*A* 86

*Q* Quick one: residual activity for N#Cc1c(O)c2c(-c3ccc(-c4ccccc4O)cc3)csc2[nH]c1=O ?
*A* 76

*Q* Item NC(=O)c1cc(-c2ccnc(NC3CCCCC3)c2)nc(N2CCNCC2)c1 has what recorded residual activity?
*A* 10

*Q* Quick one: residual activity of COc1cc2ncn(-c3cc(OCc4ccccc4S(C)(=O)=O)c(C#N)s3)c2cc1OC ?
*A* 61

*Q* # lookup: residual activity of CCCCCc1ccc(/C=C/[C@H](O)[C@@H](CO)NC)cc1
*A* 91

*Q* Recorded residual activity of O=C(O)c1ccc(-c2c[nH]c3ncc(-c4ccccc4)cc23)cc1C1CCCC1 , please.
*A* 87

*Q* Give the measured residual activity of Cc1nc(-c2ccc(OCC(C)C)c(C#N)c2)sc1C(=O)O .
*A* 79

These measurements were taken from the kinase profiling compilation of Christmann-Franck et al. (2016).
